# Tested on: LOX IMVI melanoma
# Measurement notes: NCI-60 one-dose screen, 48 h
# Assay setup: 10 µM unless noted
This is part of a sample that, as a whole, favours compounds with a hit. Of some 83,000 tested, about 20% had one in any assay. Active and inactive are the calls of the source. The calls were made as follows: active = growth percent below 10; inactive = the rest.
Classes used: true = active, false = inactive

[
  {
    "Compound": "COc1ccc(-c2ncc(-c3ccccc3)[nH]2)cc1OC",
    "Assigned label": "false"
  },
  {
    "Compound": "C=C(C)[C@@H]1CC[C@]2(C(=O)O)CC[C@]3(C)[C@H](CC[C@@H]4[C@@]5(C)C[C@@H](CC#Cc6ccc(Br)cc6)C(=O)C(C)(C)[C@@H]5CC[C@]43C)[C@@H]12",
    "Assigned label": "false"
  },
  {
    "Compound": "COc1ccc(-c2nc(N=Nc3c(O)[nH]c4ccccc34)nc(N3CCOCC3)c2C#N)cc1",
    "Assigned label": "false"
  },
  {
    "Compound": "COc1cc(Nc2cc(O)c3c(=O)cc(-c4ccccc4)oc3c2)cc(OC)c1",
    "Assigned label": "false"
  },
  {
    "Compound": "C#CCNC(=O)[C@H](Cc1ccccc1)NC(=O)[C@]12CC[C@@H](C(=C)C)[C@@H]1[C@H]1CC[C@@H]3[C@@]4(C)Cc5c([nH]c6ccccc56)C(C)(C)[C@@H]4CC[C@@]3(C)[C@]1(C)CC2",
    "Assigned label": "false"
  },
  {
    "Compound": "COc1cc2oc(-c3cccc(C(=O)Nc4ccc(Cl)cc4)c3)cc(=O)c2c(OC)c1OC",
    "Assigned label": "true"
  },
  {
    "Compound": "C=C1C(=O)O[C@H]2[C@H]1CC/C(CNC(=O)/C=C/c1ccc(Br)cc1)=C\\CC[C@@]1(C)O[C@@H]21",
    "Assigned label": "true"
  },
  {
    "Compound": "CN(C)C(C(N)=O)c1ccc(Cl)cc1 (stereo unspecified)",
    "Assigned label": "false"
  },
  {
    "Compound": "CO[C@@H]1[C@H](N(C)C(=O)c2ccccc2)C[C@@H]2O[C@]1(C)n1c3ccccc3c3c4c(c5c6ccccc6n2c5c31)C(=O)NC4=O",
    "Assigned label": "false"
  },
  {
    "Compound": "O=S(=O)(NCCCNc1nccc(-c2c(-c3ccc(F)c(O)c3)nc3sccn23)n1)c1ccc(F)cc1",
    "Assigned label": "true"
  },
  {
    "Compound": "c1cnc2nc3c(cc2c1)oc1ccccc13",
    "Assigned label": "false"
  },
  {
    "Compound": "COc1ccc(-c2nc(SC(C)C)nc(NNC(N)=O)c2C#N)cc1",
    "Assigned label": "false"
  },
  {
    "Compound": "C=C1C(=O)O[C@H]2[C@H]1CC/C(COC(=O)CCCCCC(=O)OC/C1=C/CC[C@@]3(C)O[C@H]3[C@H]3OC(=O)C(=C)[C@@H]3CC1)=C\\CC[C@@]1(C)O[C@@H]21",
    "Assigned label": "true"
  },
  {
    "Compound": "Cc1ccc(C2CC(c3cccc(Nc4ccncc4)c3)=NN2c2cc(Cl)cc(Cl)c2)cc1 (stereo unspecified)",
    "Assigned label": "true"
  },
  {
    "Compound": "COc1cccc(-c2nc3occn3c2-c2ccnc(NCCCNS(=O)(=O)c3cccc(F)c3)n2)c1",
    "Assigned label": "false"
  },
  {
    "Compound": "O=C(NCCc1ccccn1)OCc1nc2nc(Cl)nc(N3CCOCC3)c2[nH]1",
    "Assigned label": "true"
  },
  {
    "Compound": "COc1cc2nc(-c3ccc(C(F)(F)F)cc3)cc(OCCN3CCC(O)CC3)c2cc1OC",
    "Assigned label": "true"
  },
  {
    "Compound": "Cc1ccc(C(=O)Nc2ccccc2C(=O)N/N=C(\\c2ccccc2)c2ccccn2)cc1",
    "Assigned label": "true"
  },
  {
    "Compound": "C=C1C(=O)O[C@H]2[C@H]1CC/C(COC(=O)NCCc1c[nH]c3ccc(Cl)cc13)=C\\CC[C@@]1(C)O[C@@H]21",
    "Assigned label": "true"
  },
  {
    "Compound": "COc1ccc(-c2nc(SCC(C)C)nc(N/N=C(/C)c3ccc(OC)c(OC)c3)c2C#N)cc1",
    "Assigned label": "false"
  },
  {
    "Compound": "CCN1C(=O)N(CC)C2NC(SC)=NC21 (stereo unspecified)",
    "Assigned label": "false"
  },
  {
    "Compound": "CC1(c2ccccc2)NC(=O)N(CC(=O)Nc2cccc(I)c2)C1=O (stereo unspecified)",
    "Assigned label": "false"
  },
  {
    "Compound": "COc1ccc(/C=C2\\COc3ccc(-c4ccccc4)cc3C2=O)cc1O",
    "Assigned label": "true"
  },
  {
    "Compound": "COc1ccc(/C=C\\c2nc3ccccc3s2)cc1OP(=O)(O)O",
    "Assigned label": "false"
  },
  {
    "Compound": "COc1cc2nc(Cc3ccc(C)cc3)[nH]c(=O)c2cc1OC",
    "Assigned label": "false"
  },
  {
    "Compound": "COc1cnccc1-c1nc2ccc3[nH]ncc3c2c2c1CCCC2",
    "Assigned label": "false"
  },
  {
    "Compound": "NC(=O)CN1CCN(c2ccccc2Cl)CC1",
    "Assigned label": "false"
  },
  {
    "Compound": "CC[N+](CC)(CCCC(C)[N+]1(Cc2ccccc2)C(C)=CC=C1C)Cc1ccccc1 (stereo unspecified)",
    "Assigned label": "false"
  },
  {
    "Compound": "COc1cc2nnn3c4ncccc4c(N=O)c3c2cc1OC",
    "Assigned label": "false"
  },
  {
    "Compound": "O=C(Nc1ccccc1)Oc1ccccc1-c1ccccc1",
    "Assigned label": "false"
  },
  {
    "Compound": "Cc1ccc(C(c2c(O)c3cc(Br)ccc3[nH]c2=O)c2c(O)c3cc(Br)ccc3[nH]c2=O)cc1",
    "Assigned label": "false"
  },
  {
    "Compound": "COc1ccc(C(=O)c2cc3c(N)c(C(=O)Nc4ccc(Cl)cc4)sc3nc2C)cc1",
    "Assigned label": "false"
  },
  {
    "Compound": "c1ccc(C2CC(c3cccc(Nc4ccncc4)c3)=NN2c2ccccc2)cc1 (stereo unspecified)",
    "Assigned label": "false"
  },
  {
    "Compound": "COc1ccc(-c2nc3sccn3c2/C=C/C(=O)c2cc(OC)c(OC)c(OC)c2)cc1",
    "Assigned label": "false"
  },
  {
    "Compound": "CC[C@H](C)[C@@H]1NC(=O)[C@H](Cc2ccc(O)cc2)N(C)C(=O)[C@H](Cc2ccccc2)NC(=O)CN(C)C(=O)[C@@H]2CCCN2C(=O)[C@@H](Cc2ccccc2)N(C)C(=O)[C@H](CC(C)C)NC1=O",
    "Assigned label": "true"
  },
  {
    "Compound": "O=C1/C(=C/c2ccc(O)cc2)COc2ccc(-c3ccccc3)cc21",
    "Assigned label": "false"
  }
]
